Where these numbers come from: patent US20050107959A1

test: Differential scanning calorimetry (VP-DSC) of DSPC liposomes (MLVs) with drugs; format: physicochemical; design: unit not given here; settings: pH 3.6; van't Hoff's enthalpy calculated from DSC measurements
measured endpoint: ΔHvH

Example results:
COc1cccc2c1C(=O)c1c(O)c3c(c(O)c1C2=O)C[C@@](O)(C(=O)CO)C[C@@H]3O[C@H]1C[C@H](N)[C@H](O)[C@H](C)O1 [doxorubicin] : 680.5
CC[C@]1(O)C[C@H]2CN(CCc3c([nH]c4ccccc34)[C@@](C(=O)OC)(c3cc4c(cc3OC)N(C=O)[C@H]3[C@@](O)(C(=O)OC)[C@H](OC(C)=O)[C@]5(CC)C=CCN6CC[C@]43[C@@H]65)C2)C1 [vincristine] : 474.9
O=C(O)c1cn(C2CC2)c2cc(N3CCNCC3)c(F)cc2c1=O [ciprofloxacin] : 385.6
CC(=O)O[C@H]1C(=O)[C@@]2(C)[C@H]([C@H](OC(=O)c3ccccc3)[C@]3(O)C[C@H](OC(=O)[C@H](O)[C@@H](NC(=O)c4ccccc4)c4ccccc4)C(C)=C1C3(C)C)[C@]1(OC(C)=O)CO[C@@H]1C[C@@H]2O [paclitaxel] : 281.7

Lab note: measured ΔHvH of CC[C@@]1(O)C(=O)OCc2c1cc1n(c2=O)Cc2c-1nc1ccccc1c2CCNC(C)C [CKD602] was 542.3

###

Items are presented alongside their recorded Coop.
experiment: Differential scanning calorimetry (VP-DSC) of DSPC liposomes (MLVs) with drugs; assay type: physicochemical; settings: pH 7.0; cooperativity calculated from DSC measurements
// response body must contain only the number

CC[C@]1(O)C[C@H]2CN(CCc3c([nH]c4ccccc34)[C@@](C(=O)OC)(c3cc4c(cc3OC)N(C=O)[C@H]3[C@@](O)(C(=O)OC)[C@H](OC(C)=O)[C@]5(CC)C=CCN6CC[C@]43[C@@H]65)C2)C1 : 43
CC[C@@]1(O)C(=O)OCc2c1cc1n(c2=O)Cc2c-1nc1ccccc1c2CCNC(C)C : 117
COc1cccc2c1C(=O)c1c(O)c3c(c(O)c1C2=O)C[C@@](O)(C(=O)CO)C[C@@H]3O[C@H]1C[C@H](N)[C@H](O)[C@H](C)O1 : 149

Lab note: measured Coop of CC(=O)O[C@H]1C(=O)[C@@]2(C)[C@H]([C@H](OC(=O)c3ccccc3)[C@]3(O)C[C@H](OC(=O)[C@H](O)[C@@H](NC(=O)c4ccccc4)c4ccccc4)C(C)=C1C3(C)C)[C@]1(OC(C)=O)CO[C@@H]1C[C@@H]2O was 75
